# TARGET_OF_ASSAY: G protein-coupled receptor 119 (GPR-119) (Mesocricetus auratus, UniProt A0A1U8CD06)
# Construct: hamster-derived β-cells containing G protein-coupled receptor 119 (GPR-119), HIT-T15 cells; host or cells: HIT-T15 (hamster pancreatic β-cells)
# Sequence (A0A1U8CD06 1-334): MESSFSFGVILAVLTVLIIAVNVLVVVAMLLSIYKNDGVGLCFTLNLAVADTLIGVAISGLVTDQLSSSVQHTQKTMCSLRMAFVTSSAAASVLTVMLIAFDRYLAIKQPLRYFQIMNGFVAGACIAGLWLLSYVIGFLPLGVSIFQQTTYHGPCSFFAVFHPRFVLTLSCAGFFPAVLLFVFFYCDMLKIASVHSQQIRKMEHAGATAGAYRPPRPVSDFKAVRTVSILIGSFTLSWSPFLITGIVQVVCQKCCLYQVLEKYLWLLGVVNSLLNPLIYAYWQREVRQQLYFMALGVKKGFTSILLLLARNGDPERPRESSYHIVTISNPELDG
# TEST_DESCRIPTION: Evaluation of cAMP activity in HIT-T15 cells (HTRF cAMP dynamic kit)
# Format: cell-based, hamster
# RUN_CONDITIONS: cAMP activation, read-out: EC50 value
Recorded EC50 by entry

Example entries begin here.
[
  {
    "COMPOUND": "CON=C1CCN(C(=O)C2CC=C(c3ccc(OCC4CCN(c5nc(C(C)C)no5)CC4)cc3)CC2)CC1 (stereo not shown) [Example 278]",
    "TARGET_OF_ASSAY": "G protein-coupled receptor 119 (GPR-119) (Mesocricetus auratus, UniProt A0A1U8CD06)",
    "EC50": "≤ 0.05 µM"
  },
  {
    "COMPOUND": "CC(C)c1noc(N2CCC(COc3ccc(C4=CCC(C(=O)N5CCN(C6CC6)CC5)CC4)cc3)CC2)n1 (stereo not shown) [Example 89]",
    "TARGET_OF_ASSAY": "G protein-coupled receptor 119 (GPR-119) (Mesocricetus auratus, UniProt A0A1U8CD06)",
    "EC50": "≤ 0.05 µM"
  },
  {
    "COMPOUND": "CC(C)(C)OC(=O)N1CCC(COc2ccc(C3=CCC(C(=O)N4CC[C@H](F)C4)CC3)cn2)CC1 (stereo partly shown) [Example 91]",
    "TARGET_OF_ASSAY": "G protein-coupled receptor 119 (GPR-119) (Mesocricetus auratus, UniProt A0A1U8CD06)",
    "EC50": "≤ 0.05 µM"
  }
]

Lab note: next compound to report on.
Short answer on G protein-coupled receptor 119 (GPR-119) (Mesocricetus auratus, UniProt A0A1U8CD06) for CC(C)c1noc(N2CCC(COc3ccc(C4=CCC(C(=O)N5CCC5)CC4)cc3)CC2)n1 (stereo not shown) [Example 65] , EC50: ≤ 0.05 µM
